# Protocol details: Toxicokinetics in 30 day repeated dose study
# Type: in vivo, beagle dogs
# Condition info: beagle, dog, plasma, po; day 1, male, 10 mg/kg; read-out: median Tmax
Reported metric: Tmax (h)

C#Cc1cccc(Nc2ncnc3cc(OC)c(OCCCN4CCOCC4)cc23)c1.Cl [NRC-2694 monohydrochloride] | 2

Value source: patent US8921362B2
